Values were extracted from patent US20240286998A1.

tested-target: 5-HT2C (Homo sapiens (Human), UniProt P28335)
Sequence (P28335 whole entry, looked up): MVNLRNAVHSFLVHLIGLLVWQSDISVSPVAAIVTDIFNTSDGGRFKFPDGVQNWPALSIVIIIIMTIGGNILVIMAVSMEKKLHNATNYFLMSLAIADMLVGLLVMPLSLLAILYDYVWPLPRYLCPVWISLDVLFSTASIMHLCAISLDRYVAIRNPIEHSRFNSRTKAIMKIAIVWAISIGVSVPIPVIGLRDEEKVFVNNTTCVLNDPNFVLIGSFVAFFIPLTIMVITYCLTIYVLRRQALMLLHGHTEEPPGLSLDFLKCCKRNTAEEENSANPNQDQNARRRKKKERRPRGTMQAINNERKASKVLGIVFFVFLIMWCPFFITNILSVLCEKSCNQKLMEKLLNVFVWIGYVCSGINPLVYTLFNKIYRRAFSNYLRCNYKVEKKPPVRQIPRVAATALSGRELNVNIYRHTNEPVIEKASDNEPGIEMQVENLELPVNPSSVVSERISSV
experiment: 5-HT2C Gq-mediated calcium flux functional assay
Format: cell-based
assay-context: IA = Inactive; N=1-3
Please respond with reported 5-HT2C-Ca2+ FLUX Emax (% 5-HT) for every item in the list.

Dear colleague, please send me the reported 5-HT2C-Ca2+ FLUX Emax (% 5-HT) for Fc1ccc2[nH]cc(CCN(C3CCC3)C3CC3)c2c1 when you can.
80.4 ± 1.2 % 5-HT

Determine from records and report 5-HT2C-Ca2+ FLUX Emax (% 5-HT) for CCC(C)N(CCc1c[nH]c2ccc(F)cc12)C1CC1 (centres unmarked)
82.3 ± 1.7 % 5-HT

State its 5-HT2C-Ca2+ FLUX Emax (% 5-HT): CCCN(CC)CCc1c[nH]c2c(F)cc(C)cc12
94.6 ± 1.7 % 5-HT

Look up and state reported 5-HT2C-Ca2+ FLUX Emax (% 5-HT) for CCN(C)CCc1c[nH]c2cc(C)c(F)cc12
51.2 ± 2.0 % 5-HT

Check the records and state 5-HT2C-Ca2+ FLUX Emax (% 5-HT) for CCN(C)CCc1c[nH]c2cc(F)c(Cl)cc12
95.5 ± 1.0 % 5-HT

Find the measured 5-HT2C-Ca2+ FLUX Emax (% 5-HT) of CN1CC(c2c[nH]c3ccc(F)cc23)C1 and report it.
28.5 ± 0.8 % 5-HT

Given the molecule CCC(C)N(CCc1c[nH]c2ccc(F)cc12)C(C)C (centres unmarked) , write its reported 5-HT2C-Ca2+ FLUX Emax (% 5-HT).
101.5 ± 2.7 % 5-HT

Please supply the value of reported 5-HT2C-Ca2+ FLUX Emax (% 5-HT) for the item CCCN(CC)CCc1c[nH]c2ccc(F)cc12
111.7 ± 2.5 % 5-HT

Tell me its 5-HT2C-Ca2+ FLUX Emax (% 5-HT) given CCCN(CCc1c[nH]c2ccc(F)cc12)C(C)CC (centres unmarked) as the entry.
97.5 ± 2.6 % 5-HT

Report 5-HT2C-Ca2+ FLUX Emax (% 5-HT) for CCC(C)N(C)CCc1c[nH]c2ccc(F)cc12 (centres unmarked)
56.0 ± 0.9 % 5-HT

Output 5-HT2C-Ca2+ FLUX Emax (% 5-HT) of CCN(C)CCc1c[nH]c2ccc(F)cc12
117.2 ± 2.5 % 5-HT

Give me measured 5-HT2C-Ca2+ FLUX Emax (% 5-HT), please, for this molecule: CC(C)N(C)CCc1c[nH]c2ccc(F)cc12
64.6 ± 1.7 % 5-HT

Please indicate 5-HT2C-Ca2+ FLUX Emax (% 5-HT) recorded for CCN(C)CCc1c[nH]c2c(F)cc(OC)cc12
86.8 ± 1.4 % 5-HT

Dear colleague, please send me the reported 5-HT2C-Ca2+ FLUX Emax (% 5-HT) for C=CCN(CC)CCc1c[nH]c2ccc(F)cc12 when you can.
101.5 ± 1.9 % 5-HT

* * *

Task for the reader: assign each of the following molecules its reported EC50.
tested-target: UniProtKB P28223
experiment: 5-HT2A Gq-mediated calcium flux functional assay
Format: cell-based
Answer in nM, number only, no unit symbol.

Tell me its EC50 given C#CCN(CCc1c[nH]c2ccc(F)cc12)C(C)CC (stereo not shown) as the entry.
40.7

Consider the molecule CCC(C)N(C)CCc1c[nH]c2ccc(F)cc12 (stereo not shown) . State its measured EC50.
3.72

Dear colleague, please send me the reported EC50 for CCCN(CC)CCc1c[nH]c2cc(F)c(F)cc12 when you can.
1.02

Note EC50 for the molecule shown: CCCN(CC)CCc1c[nH]c2ccc(F)cc12
0.776
